Each entry below carries its measured IC50, system: ALK kinase (Homo sapiens, UniProt Q9UM73).
Sequence (Q9UM73 19-1620): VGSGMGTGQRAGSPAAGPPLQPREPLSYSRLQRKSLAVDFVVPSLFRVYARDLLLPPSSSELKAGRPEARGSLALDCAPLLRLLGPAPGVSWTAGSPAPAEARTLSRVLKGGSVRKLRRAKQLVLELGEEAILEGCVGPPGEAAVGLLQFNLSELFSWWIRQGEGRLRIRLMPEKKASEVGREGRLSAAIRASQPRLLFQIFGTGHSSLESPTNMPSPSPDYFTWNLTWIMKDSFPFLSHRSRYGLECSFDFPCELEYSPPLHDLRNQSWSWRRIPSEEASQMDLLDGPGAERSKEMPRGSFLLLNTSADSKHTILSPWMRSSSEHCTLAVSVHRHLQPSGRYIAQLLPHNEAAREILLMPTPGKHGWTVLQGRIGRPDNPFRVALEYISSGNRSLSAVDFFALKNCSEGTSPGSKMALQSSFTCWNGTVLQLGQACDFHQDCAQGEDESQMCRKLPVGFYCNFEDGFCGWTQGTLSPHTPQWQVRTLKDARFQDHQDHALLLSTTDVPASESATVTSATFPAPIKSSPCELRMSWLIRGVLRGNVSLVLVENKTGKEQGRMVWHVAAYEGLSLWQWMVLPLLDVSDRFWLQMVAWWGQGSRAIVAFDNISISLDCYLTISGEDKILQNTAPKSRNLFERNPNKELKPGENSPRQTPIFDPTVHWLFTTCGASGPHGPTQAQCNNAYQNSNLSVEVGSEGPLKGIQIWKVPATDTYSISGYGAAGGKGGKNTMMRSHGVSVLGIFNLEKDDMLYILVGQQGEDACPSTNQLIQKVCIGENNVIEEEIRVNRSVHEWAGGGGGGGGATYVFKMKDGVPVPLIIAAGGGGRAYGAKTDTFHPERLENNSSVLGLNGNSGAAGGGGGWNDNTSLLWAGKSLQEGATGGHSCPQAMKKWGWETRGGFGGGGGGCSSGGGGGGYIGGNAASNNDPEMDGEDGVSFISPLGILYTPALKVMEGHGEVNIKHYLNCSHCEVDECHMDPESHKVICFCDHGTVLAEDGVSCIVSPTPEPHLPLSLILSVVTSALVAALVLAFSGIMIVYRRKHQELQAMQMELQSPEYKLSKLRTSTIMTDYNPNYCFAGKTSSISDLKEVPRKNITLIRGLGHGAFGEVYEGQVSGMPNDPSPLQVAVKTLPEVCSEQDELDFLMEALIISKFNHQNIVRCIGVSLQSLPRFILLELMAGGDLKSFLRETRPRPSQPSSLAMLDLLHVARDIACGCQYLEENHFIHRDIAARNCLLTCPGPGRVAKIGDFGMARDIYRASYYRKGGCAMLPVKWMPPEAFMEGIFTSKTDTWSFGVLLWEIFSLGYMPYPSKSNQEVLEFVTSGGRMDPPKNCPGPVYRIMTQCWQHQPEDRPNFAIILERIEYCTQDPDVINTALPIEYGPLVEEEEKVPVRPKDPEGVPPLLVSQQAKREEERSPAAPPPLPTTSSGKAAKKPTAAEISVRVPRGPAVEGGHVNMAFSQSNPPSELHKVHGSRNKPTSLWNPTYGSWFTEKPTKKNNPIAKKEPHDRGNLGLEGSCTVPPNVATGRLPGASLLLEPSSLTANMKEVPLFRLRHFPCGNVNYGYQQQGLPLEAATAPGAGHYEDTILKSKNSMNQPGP
Experimental readout: IC50 (nM)

{"columns": ["Input smiles", "Target under test", "Experimental readout", "Number"],
 "data": [
  ["C#Cc1ccc2c3c([nH]c2c1)C(C)(C)c1cc(N2CCC(N4CCC4)CC2)c(CC)cc1C3=O", "ALK kinase (Homo sapiens, UniProt Q9UM73)", "IC50", 6.35],
  ["C#Cc1ccc2c3c([nH]c2c1)C(C)(C)c1cc(N2CCC(N(C)C)CC2)c(C#N)cc1C3=O", "ALK kinase (Homo sapiens, UniProt Q9UM73)", "IC50", 4.62],
  ["C#Cc1ccc2c3c([nH]c2c1)C(C)(C)c1cc(N2CCC(N4CCN(C5CC5)CC4)CC2)c(CC)cc1C3=O", "ALK kinase (Homo sapiens, UniProt Q9UM73)", "IC50", 59],
  ["C#Cc1ccc2c3c([nH]c2c1)C(C)(C)c1cc(N2CCC(N4CCC4)CC2)c(Cl)cc1C3=O", "ALK kinase (Homo sapiens, UniProt Q9UM73)", "IC50", 49.9]
]}

* * *

System: human anaplastic large cell lymphoma cell Karpas 299
Procedure summary: ALK gene fusion cell proliferation inhibition test (CCK-8)
Format: cell-based
Settings: 72 hours incubation, CCK-8, absorbance at 450 nm

{"columns": ["Compound", "IC50, nM"],
 "data": [
  ["C#Cc1ccc2c3c([nH]c2c1)C(C)(C)c1cc(N2CCC(N4CCOCC4)CC2)c(CC)cc1C3=O [Example E1]", 7.34],
  ["C#Cc1ccc2c3c([nH]c2c1)C(C)(C)c1cc(N2CCC(N(C)C)CC2)c(Cl)cc1C3=O", 10.4],
  ["C#Cc1ccc2c3c([nH]c2c1)C(C)(C)c1cc(N2CCN(C4CC4)CC2)c(CC)cc1C3=O", 144],
  ["C#Cc1ccc2c3c([nH]c2c1)C(C)(C)c1cc(N2CCN(C4CC4)CC2)c(C#N)cc1C3=O", 33.2],
  ["C#Cc1ccc2c3c([nH]c2c1)C(C)(C)c1cc(N2CCC(N4CCN(C)CC4)CC2)c(C#N)cc1C3=O", 3.27],
  ["C#Cc1ccc2c3c([nH]c2c1)C(C)(C)c1cc(N2CCC(NC)CC2)c(C#N)cc1C3=O", 5],
  ["C#Cc1ccc2c3c([nH]c2c1)C(C)(C)c1cc(N2CCC(N4CCCC4)CC2)c(CC)cc1C3=O", 24.9]
]}

* * *

Test system: human anaplastic large cell lymphoma cell Karpas 299
Procedure summary: ALK gene fusion cell proliferation inhibition test (CCK-8)
Type: cell-based
Settings: 72 hours incubation, CCK-8, absorbance at 450 nm
pIC50: −log10 of the molar value.
Labels assigned by pIC50 range: low (below 7), mid (7 to below 8), high (8 or more)

{"columns": ["Molecule", "Target under test", "Cat"],
 "data": [
  ["C#Cc1ccc2c3c([nH]c2c1)C(C)(C)c1cc(N2CCC(N4CCC4)CC2)c(Cl)cc1C3=O [Example E25]", "human anaplastic large cell lymphoma cell Karpas 299", "mid"],
  ["C#Cc1ccc2c3c([nH]c2c1)C(C)(C)c1cc(N2CCNCC2)c(CC)cc1C3=O [Example E7]", "human anaplastic large cell lymphoma cell Karpas 299", "mid"],
  ["C#Cc1ccc2c3c([nH]c2c1)C(C)(C)c1cc(N2CCC(N4CCOCC4)CC2)c(Cl)cc1C3=O [Example E23]", "human anaplastic large cell lymphoma cell Karpas 299", "mid"],
  ["C#Cc1ccc2c3c([nH]c2c1)C(C)(C)c1cc(C2CCN(C4CC4)CC2)c(CC)cc1C3=O [Example E10]", "human anaplastic large cell lymphoma cell Karpas 299", "low"],
  ["C#Cc1ccc2c3c([nH]c2c1)C(C)(C)c1cc(N2CCNCC2)c(Cl)cc1C3=O [Example E24]", "human anaplastic large cell lymphoma cell Karpas 299", "mid"],
  ["C#Cc1ccc2c3c([nH]c2c1)C(C)(C)c1cc(N2CCC(N4CCN(C5CC5)CC4)CC2)c(C#N)cc1C3=O [Example E18]", "human anaplastic large cell lymphoma cell Karpas 299", "high"],
  ["C#Cc1ccc2c3c([nH]c2c1)C(C)(C)c1cc(N2CCN(C)CC2)c(CC)cc1C3=O [Example E2]", "human anaplastic large cell lymphoma cell Karpas 299", "mid"],
  ["C#Cc1ccc2c3c([nH]c2c1)C(C)(C)c1cc(N2CCC(N4CCN(C)CC4)CC2)c(Cl)cc1C3=O [Example E22]", "human anaplastic large cell lymphoma cell Karpas 299", "high"],
  ["C#Cc1ccc2c3c([nH]c2c1)C(C)(C)c1cc(N2CCC(N4CCN(C5CC5)CC4)CC2)c(CC)cc1C3=O [Example E11]", "human anaplastic large cell lymphoma cell Karpas 299", "low"]
]}

* * *

Below, each entry is listed alongside its reported IC50.
Tested on: human anaplastic large cell lymphoma cell Karpas 299
Procedure summary: ALK gene fusion cell proliferation inhibition test (CCK-8)
Format: cell-based
Settings: 72 hours incubation, CCK-8, absorbance at 450 nm
Experimental readout: IC50

{"columns": ["Input smiles", "Target under test", "Result"],
 "data": [
  ["C#Cc1ccc2c3c([nH]c2c1)C(C)(C)c1cc(N2CCC(N4CCC4)CC2)c(CC)cc1C3=O", "human anaplastic large cell lymphoma cell Karpas 299", "32.6 nM"],
  ["C#Cc1ccc2c3c([nH]c2c1)C(C)(C)c1cc(N2CCC(N(C)C)CC2)c(C#N)cc1C3=O", "human anaplastic large cell lymphoma cell Karpas 299", "8.29 nM"],
  ["C#Cc1ccc2c3c([nH]c2c1)C(C)(C)c1cc(C2CCN(C)CC2)c(CC)cc1C3=O", "human anaplastic large cell lymphoma cell Karpas 299", "54.2 nM"],
  ["C#Cc1ccc2c3c([nH]c2c1)C(C)(C)c1cc(N2CCN(C4CC4)CC2)c(Cl)cc1C3=O", "human anaplastic large cell lymphoma cell Karpas 299", "55.9 nM"],
  ["C#Cc1ccc2c3c([nH]c2c1)C(C)(C)c1cc(N2CCN(C)CC2)c(C#N)cc1C3=O", "human anaplastic large cell lymphoma cell Karpas 299", "7.52 nM"],
  ["CCc1cc2c(cc1N1CCC(N3CCOCC3)CC1)C(C)(C)c1[nH]c3cc(C#CC4CC4)ccc3c1C2=O", "human anaplastic large cell lymphoma cell Karpas 299", "20.6 nM"]
]}

* * *

Test system: human anaplastic large cell lymphoma cell Karpas 299
Procedure summary: ALK gene fusion cell proliferation inhibition test (CCK-8)
Assay type: cell-based
Settings: 72 hours incubation, CCK-8, absorbance at 450 nm
Below, each entry is listed alongside its reported IC50.
Experimental readout: IC50 (nM)

{"columns": ["Input smiles", "Target under test", "Experimental readout", "Number"],
 "data": [
  ["C#Cc1ccc2c3c([nH]c2c1)C(C)(C)c1cc(N2CCC(N4CCOCC4)CC2)c(C#N)cc1C3=O", "human anaplastic large cell lymphoma cell Karpas 299", "IC50", 8.71],
  ["CC#Cc1ccc2c3c([nH]c2c1)C(C)(C)c1cc(N2CCC(N4CCOCC4)CC2)c(CC)cc1C3=O", "human anaplastic large cell lymphoma cell Karpas 299", "IC50", 110],
  ["C#Cc1ccc2c3c([nH]c2c1)C(C)(C)c1cc(N2CCN(C)CC2)c(Cl)cc1C3=O", "human anaplastic large cell lymphoma cell Karpas 299", "IC50", 11.7],
  ["C#Cc1ccc2c3c([nH]c2c1)C(C)(C)c1cc(N2CCC(N4CCCC4)CC2)c(C#N)cc1C3=O", "human anaplastic large cell lymphoma cell Karpas 299", "IC50", 11.4],
  ["C#Cc1ccc2c3c([nH]c2c1)C(C)(C)c1cc(C2CCNCC2)c(CC)cc1C3=O", "human anaplastic large cell lymphoma cell Karpas 299", "IC50", 109],
  ["C#Cc1ccc2c3c([nH]c2c1)C(C)(C)c1cc(N2CCC(N(C)C)CC2)c(CC)cc1C3=O", "human anaplastic large cell lymphoma cell Karpas 299", "IC50", 107]
]}
